Test system: Bacillus subtilis
assay: cleaved RNA product abundance (RNA/gDNA barcode ratio) relative to median wild-type variant (ratio to wild type); higher = more accumulation of the downstream cleavage product
condition: experiment (reporter, strain, medium): exp 8a: truncated aprE reporter, strain BJT201 with 2% xylose (RNase J1 expressed); cleavage site: glnRA (positions -5 to +31 mutated)
# cleaved RNA product abundance annotations

sequenceContent: CGACATGTCCCGCTTCTTTCATTACTCCGTTAGCAACTGTTTTGCTATATACATTGACCTTTTAAGAGGAGGAAT
cleaved RNA product abundance: 1.16
--
sequenceContent: CGACATGTCCCGCTTCTTTCATTATTCCGTTAACAACTGTTTTGCTATATACATTTATCTTTTAAGAGGAGGAAT
cleaved RNA product abundance: 0.27
--
sequenceContent: CGACATGTCCCGCTTCTTTCATTAATCCGTTAGCCAGTGTTTTGCTATATACATTTACCTTTTAAGAGGAGGAAT
cleaved RNA product abundance: 0.333
--
sequenceContent: CGACATGTCCCGCTTCTTTCATTAATACGTTAGCAAGTGTTTTGCTATATACATTTACCTTTTAAGAGGAGGAAT
cleaved RNA product abundance: 0.882

----------
Test system: Bacillus subtilis
assay: cleaved RNA product abundance (RNA/gDNA barcode ratio) relative to median wild-type variant (ratio to wild type); higher = more accumulation of the downstream cleavage product
condition: experiment (reporter, strain, medium): exp 2b: truncated aprE reporter, strain BJT200; cleavage site: cggR-gapA (positions -7 to +36 mutated)
Please mark y if the recorded cleaved RNA product abundance is equal to or greater than 0.2, and n if it falls below.

sequenceContent: ACAGACGAAGGAGCCGCAAAGAAGTTATTAAGGGATGAATATTCCCTTAATATAAATATCTCTCACTTATTTAAA
assignedLabel: y

sequenceContent: ACAGACGAAGGAGCCGCAAAGAAGTTATTAAGAGAAGAATAATCCCTCAATATAAATATCTCTCACTTATTTAAA
assignedLabel: n

sequenceContent: ACAGACGAAGGAGCCGCAAAGAAGTTATTAAGGGAAGAATAATACCTCAATATAAATATCTCTCACTTATTTAAA
assignedLabel: n

sequenceContent: ACAGACGAAGGAGCCGCAAAAAAGTTATTAAGGGATGAATAATCCCTCAACATAAATATCTCTCACTTATTTAAA
assignedLabel: y

sequenceContent: ACAGACGAAGGAGCCGCAAAGAAGTTATTAAGGGCTAAATAATCCCTCAATATAAATATCTCTCACTTATTTAAA
assignedLabel: y

sequenceContent: ACAGACGAAGGAGCCGCAAAAAAGTTATTAAGGGATAAATAATCCCTCAATATAAATATCTCTCACTTATTTAAA
assignedLabel: y

sequenceContent: ACAGACGAAGGAGCCGCAAAGAAGTTACTAAGGGATGAATACTCCCTCAATATAAATATCTCTCACTTATTTAAA
assignedLabel: n

----------
System: Bacillus subtilis
assay: cleaved RNA product abundance (RNA/gDNA barcode ratio) relative to median wild-type variant (ratio to wild type); higher = more accumulation of the downstream cleavage product
condition: experiment (reporter, strain, medium): exp 8a: truncated aprE reporter, strain BJT201 with 2% xylose (RNase J1 expressed); cleavage site: glnRA (positions -5 to +31 mutated)

sequenceContent: CGACATGTCCCGCTTCTTTCATTATTCCGTTAGCAACTGTTTTGCTATATACAGTTACCTTTTAAGAGGAGGAAT
cleaved RNA product abundance: 0.649
--
sequenceContent: CGACATGTCCCGCTTCTTTCATTACTCCGTTATGAACTGTTTTCCTATATACATTTACCTTTTAAGAGGAGGAAT
cleaved RNA product abundance: 0.316
--
sequenceContent: CGACATGTCCCGCTTCTTTCATTAATCAGTTAGCAACTGTTTTGCTATATACATATACCTTTTAAGAGGAGGAAT
cleaved RNA product abundance: 1.04
--
sequenceContent: CGACATGTCCCGCTTCTTTCATTAATCCGATACCAACTGTTTTGCTATATACATTTACCTTTTAAGAGGAGGAAT
cleaved RNA product abundance: 0.304
--
sequenceContent: CGACATGTCCCGCTTCTTTCATTAATCCGTTATCAACTGGTTTGCTATATACATTTACCTTTTAAGAGGAGGAAT
cleaved RNA product abundance: 0.204
--
sequenceContent: CGACATGTCCCGCTTCTTTCATTACTCCGTTAGCAACTGTTTTGCTATATACATTTACCGTTTAAGAGGAGGAAT
cleaved RNA product abundance: 1.01
--
sequenceContent: CGACATGTCCCGCTTCTTTCATTAATCCGTTAGCACCTCTTTTGCTATATACATTTACCTTTTAAGAGGAGGAAT
cleaved RNA product abundance: 0.235

----------
# cleaved RNA product abundance annotations
System: Bacillus subtilis
assay: cleaved RNA product abundance (RNA/gDNA barcode ratio) relative to median wild-type variant (ratio to wild type); higher = more accumulation of the downstream cleavage product
condition: experiment (reporter, strain, medium): exp 8a: truncated aprE reporter, strain BJT201 with 2% xylose (RNase J1 expressed); cleavage site: glnRA (positions -5 to +31 mutated)

sequenceContent: CGACATGTCCCGCTTCTTTCATTAATCCATTAGCAACTGTTTTGCTATATACATTTTCCTTTTAAGAGGAGGAAT
cleaved RNA product abundance: 0.292

sequenceContent: CGACATGTCCCGCTTCTTTCATTAAGCCGTTAGCAACTGTTTTGTTATATACATTTACCTTTTAAGAGGAGGAAT
cleaved RNA product abundance: 0.364

sequenceContent: CGACATGTCCCGCTTCTTTCATTAATCCGTTAACAACTGTTTTGCTATACACATTTACCTTTTAAGAGGAGGAAT
cleaved RNA product abundance: 0.162

sequenceContent: CGACATGTCCCGCTTCTTTCATTAATCCGTTAGCAACAGTTTTGCTATATACATTTAGCTTTTAAGAGGAGGAAT
cleaved RNA product abundance: 0.489

sequenceContent: CGACATGTCCCGCTTCTTTCATTAATCCATTATCAACTTTTTTGCTATATACATTTACCTTTTAAGAGGAGGAAT
cleaved RNA product abundance: 0.311

sequenceContent: CGACATGTCCCGCTTCTTTCATTAATCCGTTAGCAACTGTTTTGCTATAAACATTTACGTTTTAAGAGGAGGAAT
cleaved RNA product abundance: 1.32

sequenceContent: CGACATGTCCCGCTTCTTTCATTAATCCGTTAGCAATCGTTTTGCTATATACATTTACCTTTTAAGAGGAGGAAT
cleaved RNA product abundance: 1.11

----------
# cleaved RNA product abundance annotations
Test system: Bacillus subtilis
assay: cleaved RNA product abundance (RNA/gDNA barcode ratio) relative to median wild-type variant (ratio to wild type); higher = more accumulation of the downstream cleavage product
condition: experiment (reporter, strain, medium): exp 4a: truncated aprE reporter, strain BJT201 with 2% xylose (RNase J1 expressed); cleavage site: cggR-gapA (positions -7 to +36 mutated)

sequenceContent: ACAGACGAAGGAGCCGCAAAGAAGTTATTAAGGGATGAATATTCCGTCAATATAAATATCTCTCACTTATTTAAA
cleaved RNA product abundance: 0.194
--
sequenceContent: ACAGACGAAGGAGCCGCAAAGAAGTTATTAATGGATAAATAATCCCTCAATATAAATATCTCTCACTTATTTAAA
cleaved RNA product abundance: 0.116
--
sequenceContent: ACAGACGAAGGAGCCGCACAGAAGTTATTAAGAGATGAATAATCCCTCAATATAAATTTCTCTCACTTATTTAAA
cleaved RNA product abundance: 0.113
--
sequenceContent: ACAGACGAAGGAGCCGCAAAGAAGTTATCAAGGGATGAATAATACCTCAATATAAATATCTCTCACTTATTTAAA
cleaved RNA product abundance: 0.132
--
sequenceContent: ACAGACGAAGGAGCCGCAAAGAACTTATTAAGCGATGAATAATCCCTCAATATAAATATCTCTCACTTATTTAAA
cleaved RNA product abundance: 0.157
--
sequenceContent: ACAGACGAAGGAGCCGCAAAGAAGTTATTAAGGGATGAATAACTCCTCAATATAAATATCTCTCACTTATTTAAA
cleaved RNA product abundance: 0.149
--
sequenceContent: ACAGACGAAGGAGCCGCTAAGAAGTTATTAAGGGATGCATAATCCCTCAATATAAATATCTCTCACTTATTTAAA
cleaved RNA product abundance: 0.814

----------
# cleaved RNA product abundance annotations
System: Bacillus subtilis
assay: cleaved RNA product abundance (RNA/gDNA barcode ratio) relative to median wild-type variant (ratio to wild type); higher = more accumulation of the downstream cleavage product
condition: experiment (reporter, strain, medium): exp 2b: truncated aprE reporter, strain BJT200; cleavage site: cggR-gapA (positions -7 to +36 mutated)

sequenceContent: ACAGACGAAGGAGCCGCAAATAAGTTATTAAGGGATGAATAATCCCTCGATATAAATATCTCTCACTTATTTAAA
cleaved RNA product abundance: 0.459

sequenceContent: ACAGACGAAGGAGCCGCAAAGAAGTTATTAAGGGATGAAAAATCCCTCAATATAAATATCTCTCACTTATTTAAA
cleaved RNA product abundance: 0.78

sequenceContent: ACAGACGAAGGAGCCGCAAAGAAGTTATTAAGAGATAAATAATCCCTCAATATAAATATCTCTCACTTATTTAAA
cleaved RNA product abundance: 0.0926

sequenceContent: ACAGACGAAGGAGCCGCAAAGATGTTATTAAGCGATGAATAATCCCTCAATATAAATATCTCTCACTTATTTAAA
cleaved RNA product abundance: 0.0873
